# assayed target: acetylcholinesterase (AChE) (Electrophorus electricus)
# Construct: The AChE was derived from the electric eel, while BChE was obtained from equineserum; from tissue; host or cells: electric eel (tissue not specified)
# assay name: biochemical
# measurement setup: read-out: AChE Percent inhibition
# Protocol: This assay employed two enzymes, namely acetylcholinesterase (AChE) and butyryl cholinesterase (BChE). The AChE was derived from the electric eel, while BChE was obtained from equineserum. The synthesized compounds were dissolved in phosphate buffer (0.1 M, pH 8.0). […] Absorbance of the heated sample at 412 nm was measured using a double beam spectrophotometer. […]
Classification field: enter Fulfilled for inhibition at 250 µg/mL values not below 50%, Not fulfilled for values below it.

> print(dat)
              structure.notation  category.label
1    S=C(Nc1ccc(Cl)cc1)NC1CCCCC1   Not fulfilled
2    S=C(Nc1ccccc1)Nc1cccc(Cl)c1       Fulfilled
3        S=C(Nc1ccccn1)NC1CCCCC1       Fulfilled
4  Cc1ccc(NC(=S)NC2CCCCC2)c(C)c1       Fulfilled
5       Cc1cccnc1NC(=S)NC1CCCCC1   Not fulfilled

query: Tell me whether inhibition at 250 µg/mL is at least 50% here: Cc1cccnc1NC(=S)Nc1ccccc1
result: Not fulfilled

###

Catalogue of inhibition at 500 µg/mL values
# assayed target: acetylcholinesterase (AChE) (Electrophorus electricus, UniProt O42275)
# Construct: The AChE was derived from the electric eel, while BChE was obtained from equineserum; from tissue; host or cells: electric eel (tissue not specified)
# Sequence (O42275 24-633): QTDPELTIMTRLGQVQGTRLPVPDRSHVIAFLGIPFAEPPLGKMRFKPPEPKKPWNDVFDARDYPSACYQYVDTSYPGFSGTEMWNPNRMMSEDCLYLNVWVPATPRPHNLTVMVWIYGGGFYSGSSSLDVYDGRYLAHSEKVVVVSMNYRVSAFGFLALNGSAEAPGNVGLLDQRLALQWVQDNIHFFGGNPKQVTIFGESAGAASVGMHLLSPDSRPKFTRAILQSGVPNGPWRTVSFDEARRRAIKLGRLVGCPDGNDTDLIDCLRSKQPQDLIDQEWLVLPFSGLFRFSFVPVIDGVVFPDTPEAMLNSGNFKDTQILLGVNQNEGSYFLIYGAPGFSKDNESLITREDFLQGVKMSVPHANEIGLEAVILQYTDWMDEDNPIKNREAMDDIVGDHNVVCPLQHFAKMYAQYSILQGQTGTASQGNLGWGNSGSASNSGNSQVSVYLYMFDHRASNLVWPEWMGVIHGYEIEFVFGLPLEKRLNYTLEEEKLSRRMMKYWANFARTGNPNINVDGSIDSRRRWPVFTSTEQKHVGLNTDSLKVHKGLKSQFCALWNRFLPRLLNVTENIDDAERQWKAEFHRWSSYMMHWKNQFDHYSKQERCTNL
# assay name: biochemical
# measurement setup: read-out: AChE Percent inhibition
# Procedure: This assay employed two enzymes, namely acetylcholinesterase (AChE) and butyryl cholinesterase (BChE). The AChE was derived from the electric eel, while BChE was obtained from equineserum. The synthesized compounds were dissolved in phosphate buffer (0.1 M, pH 8.0). […] Absorbance of the heated sample at 412 nm was measured using a double beam spectrophotometer. […]

Guide cases for inhibition at 500 µg/mL, answers given:
> print(dat)
                                   compound                            assayed.target            assay.readout  test.result
1     Cc1cccnc1NC(=S)NC1CCCCC1 [Compound 2]  acetylcholinesterase (AChE) (Electrophorus electricus, UniProt O42275)  inhibition at 500 µg/mL        54.6%
2     Cc1cccnc1NC(=S)Nc1ccccc1 [Compound 5]  acetylcholinesterase (AChE) (Electrophorus electricus, UniProt O42275)  inhibition at 500 µg/mL        56.3%
3  S=C(Nc1ccccc1)Nc1cccc(Cl)c1 [Compound 6, 1-(3-chlorophenyl)-3-phenylthiourea]  acetylcholinesterase (AChE) (Electrophorus electricus, UniProt O42275)  inhibition at 500 µg/mL        62.8%
4  S=C(Nc1ccc(Cl)cc1)NC1CCCCC1 [Compound 4, 1-(4-chlorophenyl)-3-cyclohexylthiourea]  acetylcholinesterase (AChE) (Electrophorus electricus, UniProt O42275)  inhibition at 500 µg/mL        61.6%

query: Give the reported inhibition at 500 µg/mL for this compound. S=C(Nc1ccccn1)NC1CCCCC1 [Compound 1, 1-cyclohexyl-3-(pyridin-2-yl) thiourea]
result: 81.7%

query: Give the reported inhibition at 500 µg/mL for this compound. Cc1ccc(NC(=S)NC2CCCCC2)c(C)c1 [Compound 3]
result: 59%

###

# assayed target: butyryl cholinesterase (BChE) (Equus caballus, UniProt P81908)
# Construct: The AChE was derived from the electric eel, while BChE was obtained from equineserum; from tissue; host or cells: equine serum
# Sequence (P81908 whole entry): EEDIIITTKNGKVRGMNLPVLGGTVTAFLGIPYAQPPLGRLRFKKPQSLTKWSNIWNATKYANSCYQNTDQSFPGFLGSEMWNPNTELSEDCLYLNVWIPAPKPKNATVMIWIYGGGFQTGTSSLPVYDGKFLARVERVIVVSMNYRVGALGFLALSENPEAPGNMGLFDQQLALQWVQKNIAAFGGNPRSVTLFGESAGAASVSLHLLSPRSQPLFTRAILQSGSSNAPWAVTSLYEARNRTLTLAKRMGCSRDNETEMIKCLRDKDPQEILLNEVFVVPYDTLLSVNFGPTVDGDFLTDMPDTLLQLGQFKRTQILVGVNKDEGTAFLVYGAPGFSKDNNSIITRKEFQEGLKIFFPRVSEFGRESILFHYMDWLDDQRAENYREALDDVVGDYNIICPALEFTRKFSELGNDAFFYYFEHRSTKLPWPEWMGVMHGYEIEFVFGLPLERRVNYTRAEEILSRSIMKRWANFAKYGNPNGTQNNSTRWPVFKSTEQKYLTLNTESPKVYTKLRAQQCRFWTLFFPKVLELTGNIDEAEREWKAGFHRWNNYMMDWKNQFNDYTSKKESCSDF
# assay name: Anticholinesterase assay (Elman's test), BChE
# Type: biochemical
# measurement setup: read-out: BChE Percent inhibition
# Description: This assay employed two enzymes, namely acetylcholinesterase (AChE) and butyryl cholinesterase (BChE). The AChE was derived from the electric eel, while BChE was obtained from equineserum. The synthesized compounds were dissolved in phosphate buffer (0.1 M, pH 8.0). […] Absorbance of the heated sample at 412 nm was measured using a double beam spectrophotometer. […]
Catalogue of inhibition at 250 µg/mL values
Give the quantity in %, number only.

> print(dat)
              structure.notation                            assayed.target  test.result
1  Cc1ccc(NC(=S)NC2CCCCC2)c(C)c1  butyryl cholinesterase (BChE) (Equus caballus, UniProt P81908)         55.8
2       Cc1cccnc1NC(=S)Nc1ccccc1  butyryl cholinesterase (BChE) (Equus caballus, UniProt P81908)         47.9
3       Cc1cccnc1NC(=S)NC1CCCCC1  butyryl cholinesterase (BChE) (Equus caballus, UniProt P81908)         45.8
4        S=C(Nc1ccccn1)NC1CCCCC1  butyryl cholinesterase (BChE) (Equus caballus, UniProt P81908)         76.4
5    S=C(Nc1ccc(Cl)cc1)NC1CCCCC1  butyryl cholinesterase (BChE) (Equus caballus, UniProt P81908)           49

query: Give the reported inhibition at 250 µg/mL for this compound. S=C(Nc1ccccc1)Nc1cccc(Cl)c1
result: 61.2

###

# assayed target: acetylcholinesterase (AChE) (Electrophorus electricus)
# Construct: The AChE was derived from the electric eel, while BChE was obtained from equineserum
# assay name: biochemical
Lab note: compare IC50 with 900 µM, writing TRUE if less and FALSE if equal or more.

> print(dat)
            structure.notation  category.label
1  S=C(Nc1ccccc1)Nc1cccc(Cl)c1            TRUE

query: Bench note: check whether Cc1ccc(NC(=S)NC2CCCCC2)c(C)c1 shows IC50 below 900 µM
result: TRUE

query: Bench note: check whether Cc1cccnc1NC(=S)Nc1ccccc1 shows IC50 below 900 µM
result: FALSE

query: Bench note: check whether S=C(Nc1ccc(Cl)cc1)NC1CCCCC1 shows IC50 below 900 µM
result: FALSE

query: Bench note: check whether Cc1cccnc1NC(=S)NC1CCCCC1 shows IC50 below 900 µM
result: FALSE

###

Catalogue of DPPH %inhibition values
# assay name: DPPH free radical scavenging assay
# Format: biochemical
# measurement setup: 125 μg/mL
Give the quantity in %, number only.

Guide cases for DPPH %inhibition, answers given:
> print(dat)
                                   compound     assay.readout  unit.of.measure  test.result
1               S=C(Nc1ccccc1)Nc1cccc(Cl)c1  DPPH %inhibition                %        53.66
2                  Cc1cccnc1NC(=S)Nc1ccccc1  DPPH %inhibition                %        67.56
3  O=C(O)c1cc(O)c(O)c(O)c1 [Gallic acid, gallic acid, reference compound]  DPPH %inhibition                %        63.83
4                  Cc1cccnc1NC(=S)NC1CCCCC1  DPPH %inhibition                %        54.86
5                   S=C(Nc1ccccn1)NC1CCCCC1  DPPH %inhibition                %        54.32
6               S=C(Nc1ccc(Cl)cc1)NC1CCCCC1  DPPH %inhibition                %        54.67

Query compound follows.
query: Give the reported DPPH %inhibition for this compound. Cc1ccc(NC(=S)NC2CCCCC2)c(C)c1
result: 51.88

###

# assayed target: butyryl cholinesterase (BChE) (Equus caballus)
# Construct: The AChE was derived from the electric eel, while BChE was obtained from equineserum; from tissue; host or cells: equine serum
# assay name: Anticholinesterase assay (Elman's test), BChE
# Type: biochemical
# measurement setup: read-out: BChE Percent inhibition
assay readout: inhibition at 500 µg/mL

Guide cases for inhibition at 500 µg/mL, answers given:
> print(dat)
                                   compound            assay.readout  test.result
1  COc1ccc2c3c1O[C@H]1C[C@@H](O)C=C[C@@]31CCN(C)C2 [Galantamine, reference compound]  inhibition at 500 µg/mL        81.8%
2                  Cc1cccnc1NC(=S)NC1CCCCC1  inhibition at 500 µg/mL        56.5%
3                   S=C(Nc1ccccn1)NC1CCCCC1  inhibition at 500 µg/mL        84.2%

Query compound follows.
query: Give the reported inhibition at 500 µg/mL for this compound. S=C(Nc1ccc(Cl)cc1)NC1CCCCC1
result: 63%

###

Catalogue of inhibition at 125 µg/mL values
# assayed target: butyryl cholinesterase (BChE) (Equus caballus)
# Construct: The AChE was derived from the electric eel, while BChE was obtained from equineserum; from tissue; host or cells: equine serum
# assay name: Anticholinesterase assay (Elman's test), BChE
# Assay type: biochemical
# measurement setup: read-out: BChE Percent inhibition
Give the quantity in %, number only.

> print(dat)
                      compound            assay.readout  unit.of.measure  test.result
1  S=C(Nc1ccc(Cl)cc1)NC1CCCCC1  inhibition at 125 µg/mL                %         42.7
2     Cc1cccnc1NC(=S)NC1CCCCC1  inhibition at 125 µg/mL                %         37.5
3     Cc1cccnc1NC(=S)Nc1ccccc1  inhibition at 125 µg/mL                %           39

query: Give the reported inhibition at 125 µg/mL for this compound. COc1ccc2c3c1O[C@H]1C[C@@H](O)C=C[C@@]31CCN(C)C2 [Galantamine, reference compound]
result: 67.9

query: Give the reported inhibition at 125 µg/mL for this compound. S=C(Nc1ccccn1)NC1CCCCC1
result: 71.6

query: Give the reported inhibition at 125 µg/mL for this compound. Cc1ccc(NC(=S)NC2CCCCC2)c(C)c1
result: 50.2

query: Give the reported inhibition at 125 µg/mL for this compound. S=C(Nc1ccccc1)Nc1cccc(Cl)c1
result: 55.1
